System: NCI/ADR-RES ovarian
Assay: NCI-60 one-dose screen, 48 h (100 = growth as untreated, 0 = no growth, -100 = all killed)
Conditions: 10 µM unless noted
This is part of a sample that, as a whole, favours compounds with a hit. Of some 83,000 tested, about 20% had one in any assay.
Could you please report measured growth for the items listed next?
Answers are plain numbers, in %.

Please review the following examples before continuing.
>  <smiles-repr>
O=[N+]([O-])c1ccc(-c2cc3c(Nc4ccc(Sc5nc6ccccc6s5)c(Cl)c4)ncnc3s2)cc1

>  <reported-value>
60.3

$$$$
>  <smiles-repr>
Cc1ccc(S(=O)(=O)N(CC[C@@H]2C[C@H]2c2cc3ccccc3o2)C(=O)NC2CCCCC2)cc1

>  <reported-value>
86.9

$$$$
>  <smiles-repr>
COc1cc2c(c(OC)c1OC)C(=O)/C(=C/c1cc(C)c(O)c(C)c1)S2

>  <reported-value>
14.1

$$$$

Hi! Can you tell me growth for each of these compounds?
1. CN(C)c1ccc(-c2cc(-c3ccc(Nc4nc(Nc5ccccc5)nc(Nc5ccc(Cl)cc5)n4)cc3)nc(N)n2)cc1
2. CS(=O)(=O)c1ccc(-c2[nH]c3ccc(F)cc3c2/C=N/NC(N)=S)cc1
3. C[C@H]1[C@H](C)CC[C@]2(C(=O)N3CCN(C)CC3)CC[C@]3(C)C(=CC[C@@H]4[C@@]5(C)C/C(=C/c6cccnc6)C(=O)C(C)(C)[C@@H]5CC[C@]43C)[C@H]12
4. CC(=O)Nc1ccc2c(c1)Cc1c(F)cccc1-2
5. Oc1[nH]c2ccccc2c1/C=c1/cc2c(c(-c3ccc(F)cc3)n1)=Nc1ccccc1-2

Response given:
15.5
11.1
-75.1
107
-18.7

----------
Could you please report measured growth for the items listed next?
System: OVCAR-8 ovarian
Assay: NCI-60 one-dose screen, 48 h (100 = growth as untreated, 0 = no growth, -100 = all killed)
Conditions: 10 µM unless noted
The panel holds about 83,000 compounds, 20% with a hit somewhere; the sample as a whole holds those more often.
Numbers only, in %.

Please review the following examples before continuing.
>  <compound>
COc1ccc(OC)c(Nc2nc3nonc3nc2Nc2cccc(Br)c2)c1

>  <units>
%

>  <growth>
10.5

$$$$
>  <compound>
CS(=O)(=O)c1ccc(N/N=C/c2c(-c3ccc(S(C)(=O)=O)cc3)[nH]c3ccc(F)cc23)cc1

>  <units>
%

>  <growth>
26.1

$$$$
>  <compound>
O=C(/C=C/c1ccccc1)c1ccc2ccccc2c1

>  <units>
%

>  <growth>
100

$$$$
>  <compound>
C/C(Cc1ccc(Cl)cc1)=C(/c1ccc(Cl)cc1)c1ccc(OCCN(C)C)cc1

>  <units>
%

>  <growth>
69.2

$$$$

Hi! Can you tell me growth for each of these compounds?
1. CSc1nc(N)c(CNC(C)c2ccccc2)c(=O)n1C (stereo unspecified)
2. O=C1NCC(=O)N(Cc2ccco2)[C@H]1Cc1ccccc1
3. CN1CCN(C2=C(Cl)C(=O)c3ccccc3C2=O)CC1
4. CCOc1cc(N)ccc1C(=O)NCCCN(CC)CC
5. C[N+](C)(C)CCOC(OCC[N+](C)(C)C)(c1ccccc1)c1ccccc1
6. CCNCCNc1cc(-c2ccc(C#N)cc2)c(C#N)c2nc3ccccc3n12
7. CCOC(=O)C1=C(C)NC(SCc2nnc(-c3ccc(Cl)cc3)o2)=NC1c1ccc(Cl)cc1Cl (stereo unspecified)
8. COc1cc2c(cc1OC)-c1ccc3cc4c(cc3c1N(CCCN(C)C)C2)OCO4

Response given:
97.9
105
67.1
118
105
38.7
54.2
27.5

Hi! Can you tell me growth for each of these compounds?
1. N#Cc1c(-c2ccc(C(F)(F)F)cc2)cc(N2CC(O)C2)n2c1nc1ccccc12
2. COc1ccc(Oc2nc(Nc3ccc(N4CCOCC4)nc3)ncc2NC(=O)c2cc(OC)cc(OC)c2)cc1
3. COc1cc(NC(=O)c2cc(O)c(CC=C(C)C)c(O)c2)cc2c1O[C@]1(C)CC[C@@H](O)C(C)(C)[C@H]1C2
4. O=C(Nc1ccc(N2CCCCC2)c(Cl)c1)c1ccc(Br)o1
5. CCCCOc1nc2ccc(Cl)cc2cc1/C=C/C(=O)/C=C1/CC(c2cc3cc(Cl)ccc3nc2OCCCC)Nc2ccccc2N1 (stereo unspecified)

Response given:
1. 19.4
2. 77.8
3. 54
4. 59
5. 101

Hi! Can you tell me growth for each of these compounds?
1. CNC(=O)c1c(NC(=O)c2ccc(C(C)(C)C)cc2)sc2c1CCC(=O)C2
2. CCOC(=O)c1c(C)[nH]c(C(=O)CCC(=O)OC)c1C
3. Cn1ccnc1C(=O)/C=C/c1ccc(C(=O)Nc2ccc(S(F)(F)(F)(F)F)cc2)cc1
4. CCO/C=N/C1=C(C#N)C(c2ccc(OC)cc2)c2c(c3ccccc3n(C)c2=O)O1 (stereo unspecified)

Response given:
[15.7, 103, 9.86, 104]
